Measured Target: T1, human IL-23R endogenously expressed on DB cells (human, UniProt Q5VWK5 24-629)
T1 sequence (looked up): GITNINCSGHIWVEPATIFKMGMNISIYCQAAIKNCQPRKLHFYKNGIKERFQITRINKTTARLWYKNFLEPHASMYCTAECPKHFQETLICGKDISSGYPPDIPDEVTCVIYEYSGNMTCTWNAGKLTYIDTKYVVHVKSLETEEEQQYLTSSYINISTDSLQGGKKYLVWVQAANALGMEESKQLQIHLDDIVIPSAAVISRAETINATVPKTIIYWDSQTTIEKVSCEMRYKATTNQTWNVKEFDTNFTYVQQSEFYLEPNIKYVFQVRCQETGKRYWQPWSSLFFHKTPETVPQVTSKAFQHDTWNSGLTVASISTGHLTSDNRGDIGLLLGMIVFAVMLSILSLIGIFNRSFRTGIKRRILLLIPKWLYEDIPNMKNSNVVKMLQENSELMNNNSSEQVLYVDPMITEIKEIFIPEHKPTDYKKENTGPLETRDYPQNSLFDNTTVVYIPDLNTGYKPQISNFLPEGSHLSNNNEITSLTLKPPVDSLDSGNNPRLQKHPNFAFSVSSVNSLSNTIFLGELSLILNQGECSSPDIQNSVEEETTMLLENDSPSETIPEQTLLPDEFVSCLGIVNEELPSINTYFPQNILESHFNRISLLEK
Assay Explanation: cell-based or functional assay
*1 amine or outer side, *2 acyl side, *3 side chain or, on linkers, in order; H or OH if unused. Bridges are numbered along the chain shown (N, C = ends). [ ]: non-standard residue; d: D form. 4‑Aminomethyl‑phenylacetyl = 4-aminomethyl-phenylacetyl unit, its amine closes the lactam, O=C(Cc1ccc(CN[*:1])cc1)[*:2]; αMeAla(3-pyridyl) = C[C@](N)(Cc1cccnc1)C(=O)O; 2Nal = N[C@@H](Cc1ccc2ccccc2c1)C(=O)O; AEF = NCCOc1ccc(C[C@H](N)C(=O)O)cc1; NMe3Pal = CN[C@@H](Cc1cccnc1)C(=O)O; αMeL = CC(C)C[C@](C)(N)C(=O)O; Iso‑Dab = not defined here; 3Amb = NCc1cccc(C(=O)O)c1; Dab = NCC[C@H](N)C(=O)O
Attribute Measured: hIL-23 (pSTAT3) antagonist IC50 (nM)

Some solved cases for reference:
Binder	Value Reported
XQTWQCYWXENG ([Ac]-[Abu](16i)QTWQC(16i)[Y(2-aminoethoxy)]W[2-Me-Lys]ENG-[NH2]; (16i) [2,7] thioether bridge (cystathionine); N-terminal acetyl, C-terminal amide, Y = Y(2-aminoethoxy)) [Compound C]	13
[3Amb]SCWQC[AEF][2Nal][αMeL]E[dR]-NH2 (lactam N-10; bridge 3-6; not fully specified (bridges); printed as [(3-Aminomethyl)benzoyl](1c)*SC(2a)WQC(2a)[Y(2-aminoethoxy)][2-Nal][2-Me-Leu]E(1c)[{d}R]-[NH2], Y = Y(2-aminoethoxy), R = D-Arg) [Ref 41]	29

[1] [4‑Aminomethyl‑phenylacetyl]SEWQ[Dab][AEF][2Nal][αMeL]E[Dab][NMe3Pal]-NH2 (lactam N-10, 3-6) [Compound 4]
[2] [4‑Aminomethyl‑phenylacetyl]SEWQ[Dab][AEF][2Nal][αMeL]E[Iso‑Dab][αMeAla(3-pyridyl)]-NH2 (lactam N-10, 3-6; reading uncertain; also: iso-Dab11 joined via side-chain amine) [Compound 15]
[3] Ac-DESCWQCW[2Nal]LKR-NH2 (lactam 2-11; bridge 4-7; not fully specified (bridges); printed as [Ac]-DE(1c)SC(2a)WQC(2a)W[2-Nal]LK(1c)R-[NH2]) [Ref 17]
Inquiry: Put these in order: smallest hIL-23 (pSTAT3) antagonist IC50 first, largest last. Answer format: the labels, ordered as requested.
Reply text: 1, 2, 3
(1: 6.5 nM, 2: 12 nM, 3: 370 nM)
